Reference source for all entries: PubChem BioAssay (NCI)

- Test system: HT29 colon
- Test summary: NCI tumour cell line growth inhibition, 48 h
Experimental readout: TGI (µM)
I only need the number, in µM, no unit after it.

[[record]]
structure_notation = "c1ccc(COc2ccc3[nH]c4c(ncc5[nH]c6ccccc6c54)c3c2)cc1"
unit_of_measurement = "µM"
test_result = 17.8


The measured TGI associated with CCOC(=O)/C=C/c1ccc(C(=O)OCC)[nH]1 reads 14.2

====

- Test system: MALME-3M melanoma
- Test summary: NCI tumour cell line growth inhibition, 48 h
Kindly return TRUE if reported TGI is no lower than 30 µM; return FALSE if it is lower.

Example results:
[[record]]
structure_notation = "O=C(/C=C/c1ccc([N+](=O)[O-])o1)NNC(=O)c1cc2ccccc2cc1O"
target_of_assay = "MALME-3M melanoma"
class = "FALSE"

[[record]]
structure_notation = "O=[N+]([O-])/C=C\\c1ccc2c(c1)OCO2"
target_of_assay = "MALME-3M melanoma"
class = "TRUE"

[[record]]
structure_notation = "CC1=C(C#N)S(=O)(=O)c2c(oc(C)c2C)N1"
target_of_assay = "MALME-3M melanoma"
class = "TRUE"

[[record]]
structure_notation = "Cn1nnnc1[N-]Cc1ccccc1.[Au+].c1ccc([PH+](c2ccccc2)c2ccccc2)cc1"
target_of_assay = "MALME-3M melanoma"
class = "FALSE"


# evaluate next
Data request: Dear colleague, could you confirm whether Cn1c(N/N=C/c2ccc(Cl)cc2)nc(-c2ccc(Cl)cc2)c(C#N)c1=O has TGI at or above 30 µM?
Data returned: TRUE
